- Protocol: Cytotoxicity against human SJ-G2 cells after 72 hrs by MTT assay
- Format: cell-based
Item-by-item account of GI50 at 72 h

Incoming: Find the recorded GI50 at 72 h belonging to O=C(O)C1C(C(=O)Nc2ccc(O)cc2)[C@H]2CC[C@@H]1O2 (stereo partly specified) and report it.
Outgoing: 10 µM

Incoming: // repeat for O=C1[C@@H]2[C@H](C(=O)N1c1ncccc1OCc1ccccc1)[C@H]1CC[C@@H]2O1 and report
Outgoing: > 75 µM

Now turn to the next compound.
Incoming: Find the recorded GI50 at 72 h belonging to O=C(O)C1C(C(=O)NCCCc2ccccc2)[C@H]2CC[C@@H]1O2 (stereo partly specified) and report it.
Outgoing: 10 µM

* * *

Item-by-item account of GI50 at 72 h
- Protocol: Cytotoxicity against human MCF7 cells after 72 hrs by MTT assay
- Type: cell-based

Incoming: Find the recorded GI50 at 72 h belonging to O=C(O)CCCCCCCNC(=O)C1C(C(=O)O)[C@@H]2CC[C@H]1O2 (some centres undefined) and report it.
Outgoing: 10 µM

Incoming: // repeat for O=C(O)CCCNC(=O)C1C(C(=O)O)[C@@H]2CC[C@H]1O2 (some centres undefined) and report
Outgoing: 10 µM

Incoming: // repeat for CCOC(=O)c1cn[nH]c1NC(=O)C1C(C(=O)O)[C@@H]2CC[C@H]1O2 (some centres undefined) and report
Outgoing: 10 µM

Incoming: // repeat for O=C1[C@@H]2[C@H](C(=O)N1CCOP(=O)(OCC(Cl)(Cl)Cl)OCC(Cl)(Cl)Cl)[C@H]1CC[C@@H]2O1 and report
Outgoing: > 75 µM

Incoming: // repeat for O=C(O)C1C(C(=O)Nc2ccc(O)cc2)[C@H]2CC[C@@H]1O2 (some centres undefined) and report
Outgoing: 10 µM

Incoming: // repeat for CCCNC(=O)C1C(C(=O)O)[C@@H]2CC[C@H]1O2 (some centres undefined) and report
Outgoing: 10 µM

Incoming: // repeat for C/C(=N/Nc1ccccc1)c1ccccc1NC(=O)C1C(C(=O)O)[C@@H]2CC[C@H]1O2 (some centres undefined) and report
Outgoing: 10 µM

Incoming: // repeat for O=C(O)C1C(C(=O)NCc2ccc(Cl)cc2)[C@H]2CC[C@@H]1O2 (some centres undefined) and report
Outgoing: 10 µM

Now turn to the next compound.
Incoming: Find the recorded GI50 at 72 h belonging to O=C(O)C1C(C(=O)Nc2ccc(Br)cc2)[C@H]2CC[C@@H]1O2 (some centres undefined) and report it.
Outgoing: 10 µM

* * *

Item-by-item account of GI50 at 72 h
- Protocol: Cytotoxicity against human A2780 cells after 72 hrs by MTT assay
- Assay type: cell-based
Write the number in µM without appending the unit.

Incoming: Find the recorded GI50 at 72 h belonging to C/C(=N/Nc1ccccc1)c1ccccc1NC(=O)C1C(C(=O)O)[C@@H]2CC[C@H]1O2 (stereo not given in full) and report it.
Outgoing: 10

Incoming: // repeat for O=C(O)CCCCCCCNC(=O)C1C(C(=O)O)[C@@H]2CC[C@H]1O2 (stereo not given in full) and report
Outgoing: 10

Further cases:
Incoming: Find the recorded GI50 at 72 h belonging to O=C(O)CCCNC(=O)C1C(C(=O)O)[C@@H]2CC[C@H]1O2 (stereo not given in full) and report it.
Outgoing: 10

* * *

Item-by-item account of GI50 at 72 h
- Protocol: Cytotoxicity against human HT-29 cells after 72 hrs by MTT assay
- Type: cell-based

Incoming: Find the recorded GI50 at 72 h belonging to O=C1[C@@H]2[C@H](C(=O)N1c1ncccc1OCc1ccccc1)[C@H]1CC[C@@H]2O1 and report it.
Outgoing: > 75 µM

Incoming: // repeat for O=C(O)[C@H](Cc1ccc(O)cc1)N1C(=O)[C@@H]2[C@H](C1=O)[C@H]1CC[C@@H]2O1 and report
Outgoing: > 75 µM

Incoming: // repeat for CN(C)CCOc1ccccc1N1C(=O)[C@@H]2[C@H](C1=O)[C@H]1CC[C@@H]2O1 and report
Outgoing: > 75 µM

Incoming: // repeat for CCCCCCCCCCNC(=O)C1C(C(=O)O)[C@@H]2CC[C@H]1O2 (stereo partly drawn) and report
Outgoing: 10 µM

Incoming: // repeat for C/C(=N/Nc1ccccc1)c1ccccc1NC(=O)C1C(C(=O)O)[C@@H]2CC[C@H]1O2 (stereo partly drawn) and report
Outgoing: 10 µM

Incoming: // repeat for O=C(O)CCCCCCCNC(=O)C1C(C(=O)O)[C@@H]2CC[C@H]1O2 (stereo partly drawn) and report
Outgoing: 10 µM

Incoming: // repeat for O=C1[C@@H]2[C@H](C(=O)N1CCOP(=O)(OCC(Cl)(Cl)Cl)OCC(Cl)(Cl)Cl)[C@H]1CC[C@@H]2O1 and report
Outgoing: > 75 µM

Now turn to the next compound.
Incoming: Find the recorded GI50 at 72 h belonging to CN(C)CCOc1ccc(N2C(=O)[C@@H]3[C@H](C2=O)[C@H]2CC[C@@H]3O2)cc1 and report it.
Outgoing: > 75 µM
